Hi there, I'd appreciate the recorded EC50 for every entry that follows.
target: Histone deacetylase; assay: Effect on induced hyperacetylation of histones in whole cells; assay type: functional, cell-based, Homo sapiens
State just the number; it will be interpreted in µM.

Data request, read-out EC50, for `Nc1ccccc1NC(=O)CCCCCCC(=O)c1ccc(Br)cc1`
15

// lookup EC50 for `Nc1ccccc1NC(=O)CCCCCCC(=O)c1ccc2ccccc2c1`
25

So what does the record say about EC50 for `Nc1ccccc1NC(=O)CCCCCCC(=O)c1ccccc1` ?
25

# lookup: EC50 of `Cc1ccc2c(c1)C(=O)N(CCCCCC(=O)Nc1ccccc1N)C2=O`
3

Quick one: EC50 of `Nc1ccccc1NC(=O)CCCCCn1c(=O)[nH]c2ccccc2c1=O` ?
10

Recorded EC50 for `Nc1ccccc1NC(=O)CCCCCN1C(=O)c2ccc(O)cc2C1=O` , please?
10

Report EC50 for `COc1ccc(C(=O)CCCCCCC(=O)Nc2ccccc2N)cc1` please.
5

Reported EC50, compound `Nc1ccccc1NC(=O)CCCCCn1nnc2ccccc2c1=O` : ____
10

Quick one: EC50 for `Nc1ccccc1NC(=O)CCCCCCC(=O)c1cccc(-c2ccccc2)c1` ?
25
